# Tested on: HCT-116
# assay details: Cytotoxicity against human HCT116 cells after 72 hrs by MTT assay
# Format: functional, cell-based
# test settings: HCT-116, 72 h
The reader will find reported log10 of IC50 values listed item by item below.
The base-10 logarithm of IC50, taken with IC50 in µM, is what appears here.

Oc1ccc(C2C/C(=N\NC(=S)N3CCCCC3)c3ccc(O)cc3O2)cc1 (configuration not stated): 1.71
Oc1ccc(C2C/C(=N\NC(=S)N3CCCC3)c3ccc(O)cc3O2)cc1 (configuration not stated): 1.72
CC(C)(C)NC(=S)N/N=C1\CC(c2ccc(O)cc2)Oc2cc(O)ccc21 (configuration not stated): 1.41
CCCN(CCC)C(=S)N/N=C1\CC(c2ccc(O)cc2)Oc2cc(O)ccc21 (configuration not stated): 1.62
O=c1[nH]cc(F)c(=O)[nH]1: 0.29

log10 of IC50 recorded for this compound, Oc1ccc(C2C/C(=N\NC(=S)N3CCOCC3)c3ccc(O)cc3O2)cc1 (configuration not stated) , is 1.80

Recorded result, CC(C)NC(=S)N/N=C1\CC(c2ccc(O)cc2)Oc2cc(O)ccc21 (configuration not stated) , log10 of IC50: 1.58

Looking up O=C1C[C@@H](c2ccc(O)cc2)Oc2cc(O)ccc21 , I found its log10 of IC50 recorded as 1.57

The compound listed as CN1CCN(C(=S)N/N=C2\CC(c3ccc(O)cc3)Oc3cc(O)ccc32)CC1 (configuration not stated) shows log10 of IC50 equal to 1.78

# log10 of IC50 of CCCNC(=S)N/N=C1\CC(c2ccc(O)cc2)Oc2cc(O)ccc21 (configuration not stated) = 1.73

Consider Oc1ccc(C2C/C(=N\NC(=S)N3CCNCC3)c3ccc(O)cc3O2)cc1 (configuration not stated) . Its measured log10 of IC50 is 1.90

Measured log10 of IC50 of CCCCNC(=S)N/N=C1\CC(c2ccc(O)cc2)Oc2cc(O)ccc21 (configuration not stated) : 1.69

###

# System: DU-145 (human)
# assay details: Cytotoxicity against human DU145 cells after 72 hrs by MTT assay
# test settings: DU-145, 72 h
Reported IC50 by item:
API: value field is a number in µM; no unit string.

Use the examples below as a reference point.
CCCCNC(=S)N/N=C1\CC(c2ccc(O)cc2)Oc2cc(O)ccc21 (configuration not stated): 50.8
CC(C)NC(=S)N/N=C1\CC(c2ccc(O)cc2)Oc2cc(O)ccc21 (configuration not stated): 35.2
CCCNC(=S)N/N=C1\CC(c2ccc(O)cc2)Oc2cc(O)ccc21 (configuration not stated): 31.2
Oc1ccc(C2C/C(=N\NC(=S)N3CCOCC3)c3ccc(O)cc3O2)cc1 (configuration not stated): 52.2
Oc1ccc(C2C/C(=N\NC(=S)N3CCNCC3)c3ccc(O)cc3O2)cc1 (configuration not stated): 22.5

Short answer for O=C1C[C@@H](c2ccc(O)cc2)Oc2cc(O)ccc21 : IC50 was 92.4

The compound listed as O=c1[nH]cc(F)c(=O)[nH]1 has a reported IC50 of 2.95

###

# Tested on: K562
# assay details: Cytotoxicity against human K562 cells after 72 hrs by MTT assay
# Type: functional, cell-based
# test settings: K562, 72 h
test readout: IC50 (µM)
Numbers only; they are read as µM.

# annotated cases, reported IC50 shown
CC(C)(C)NC(=S)N/N=C1\CC(c2ccc(O)cc2)Oc2cc(O)ccc21 (centres undefined): 8.9
CCCNC(=S)N/N=C1\CC(c2ccc(O)cc2)Oc2cc(O)ccc21 (centres undefined): 31

Proceeding to the next compound to report its IC50.
Oc1ccc(C2C/C(=N\NC(=S)N3CCCCC3)c3ccc(O)cc3O2)cc1 (centres undefined) yielded IC50 of 13.7
